target_entity: MDMX (Homo sapiens, UniProt O15151)
Sequence (O15151 1-125): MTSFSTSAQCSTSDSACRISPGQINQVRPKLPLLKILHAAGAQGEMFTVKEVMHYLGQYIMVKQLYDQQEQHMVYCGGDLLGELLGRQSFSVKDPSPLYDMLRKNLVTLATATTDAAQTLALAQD
test_name: Competitive fluorescence polarization assay for MDMX
Assay type: binding
stated_conditions: competitive FP assay, read-out: Ki (MDMX)
Where a SMILES comes first, the peptide text is derived from it. Bridges are numbered along the chain shown (N, C = ends). [ ]: non-standard residue; d: D form. R8 = C=CCCCCCC[C@@](C)(N)C(=O)O; Cba = N[C@@H](CC1CCC1)C(=O)O; S5 = C=CCCC[C@](C)(N)C(=O)O; Nle = CCCC[C@H](N)C(=O)O
property_name: Ki

Form: compound = CC(=O)N[C@@H](CC(C)C)C(=O)N[C@H](C(=O)N[C@@H](Cc1ccccc1)C(=O)N[C@]1(C)CCCCCCC=CCCC[C@@](C)(C(=O)N[C@@H](CO)C(=O)N[C@@H](C)C(=O)N[C@@H](Cc2ccccc2)C(N)=O)NC(=O)[C@H](CC2CCC2)NC(=O)[C@H](CCC(N)=O)NC(=O)[C@H](C)NC(=O)[C@H](Cc2c[nH]c3ccccc23)NC(=O)[C@H](Cc2ccc(O)cc2)NC(=O)[C@H](C)NC1=O)[C@@H](C)O [compound 258] (Ac-LTF[R8]AYWAQ[Cba][S5]SAF-NH2; staple 4-11) ; Ki = 10 to 100 nM

Ki measured on CCCC[C@H](NC(=O)[C@H](C)NC(=O)[C@H](C)NC(=O)[C@]1(C)CCCC=CCCCCCC[C@@](C)(NC(=O)[C@H](Cc2ccccc2)NC(=O)[C@@H](NC(=O)[C@H](CC(C)C)NC(C)=O)[C@@H](C)O)C(=O)N[C@@H](C)C(=O)N[C@@H](Cc2ccc(O)cc2)C(=O)N[C@@H](Cc2c[nH]c3ccccc23)C(=O)N[C@@H](C)C(=O)N[C@@H](CCC(N)=O)C(=O)N[C@@H](CC(C)C)C(=O)N1)C(=O)N[C@@H](C)C(=O)NCCC (single isomer, unassigned) = 10 to 100 nM

// Ki value for CC(=O)N[C@@H](CC(C)C)C(=O)N[C@H](C(=O)N[C@@H](Cc1ccccc1)C(=O)N[C@]1(C)CCCCCCC=CCCC[C@@](C)(C(=O)N[C@@H](C)C(=O)N[C@@H](C)C(=O)N[C@@H](C)C(=O)N[C@@H](C)C(=O)N[C@H](C)C(N)=O)NC(=O)[C@H](CCC(C)C)NC(=O)[C@H](CCC(N)=O)NC(=O)[C@H](C)NC(=O)[C@H](Cc2c[nH]c3ccccc23)NC(=O)[C@H](Cc2ccc(O)cc2)NC(=O)[C@H](C)NC1=O)[C@@H](C)O (single isomer, unassigned) [compound 313] : 10 to 100 nM

Entry under test: CCCC[C@H](NC(=O)[C@H](C)NC(=O)[C@H](C)NC(=O)[C@]1(C)CCCC=CCCCCCC[C@@](C)(NC(=O)[C@H](Cc2ccccc2)NC(=O)[C@@H](NC(=O)[C@H](CC(C)C)NC(C)=O)[C@@H](C)O)C(=O)N[C@@H](C)C(=O)N[C@@H](Cc2ccc(O)cc2)C(=O)N[C@@H](Cc2c[nH]c3ccccc23)C(=O)N[C@@H](C)C(=O)N[C@@H](CCC(N)=O)C(=O)N[C@@H](CC(C)C)C(=O)N1)C(=O)N[C@@H](C)C(=O)NC(C)(C)C(N)=O (single isomer, unassigned) . Its Ki was < 10 nM

Item: CCCC[C@H](NC(=O)[C@H](C)NC(=O)[C@H](C)NC(=O)[C@]1(C)CCCC=CCCCCCC[C@@](C)(NC(=O)[C@H](Cc2ccccc2)NC(=O)[C@@H](NC(=O)[C@H](CC(C)C)NC(C)=O)[C@@H](C)O)C(=O)N[C@@H](C)C(=O)N[C@@H](Cc2ccc(O)cc2)C(=O)N[C@@H](Cc2c[nH]c3ccccc23)C(=O)N[C@@H](C)C(=O)N[C@@H](CCC(N)=O)C(=O)N[C@@H](CC(C)C)C(=O)N1)C(=O)N[C@@H](C)C(=O)O (single isomer, unassigned) | Ki: < 10 nM

The compound CCCC[C@H](NC(=O)[C@H](Cc1c[nH]c2ccccc12)NC(=O)[C@H](C)NC(=O)[C@]1(C)CCCC=CCCCCCC[C@@](C)(NC(=O)[C@H](Cc2ccccc2)NC(=O)[C@@H](NC(=O)[C@H](CC(C)C)NC(C)=O)[C@@H](C)O)C(=O)N[C@@H](CCC(=O)O)C(=O)N[C@@H](Cc2ccc(O)cc2)C(=O)N[C@@H](Cc2c[nH]c3ccccc23)C(=O)N[C@@H](C)C(=O)N[C@@H](CCC(N)=O)C(=O)N[C@@H](CC2CCC2)C(=O)N1)C(=O)N[C@@H](C)C(N)=O [compound 241] (Ac-LTF[R8]EYWAQ[Cba][S5]AW[Nle]A-NH2; staple 4-11) showed Ki equal to 10 to 100 nM

Noted for CC(=O)N[C@@H](CCCNC(=N)N)C(=O)N[C@H](C(=O)N[C@@H](Cc1ccccc1)C(=O)N[C@]1(C)CCCCCCC=CCCC[C@@](C)(C(=O)N[C@@H](CO)C(=O)N[C@@H](C)C(=O)N[C@@H](C)C(N)=O)NC(=O)[C@H](CC2CCC2)NC(=O)[C@H](CCC(N)=O)NC(=O)[C@H](C)NC(=O)[C@H](Cc2c[nH]c3ccccc23)NC(=O)[C@H](Cc2ccc(O)cc2)NC(=O)[C@H](CCC(=O)O)NC1=O)[C@@H](C)O [compound 360] (Ac-RTF[R8]EYWAQ[Cba][S5]SAA-NH2; staple 4-11) : its Ki reads < 10 nM

Lab note: CCCC[C@H](NC(=O)[C@H](C)NC(=O)[C@H](C)NC(=O)[C@]1(C)CCCC=CCCCCCC[C@@](C)(NC(=O)[C@H](Cc2ccccc2)NC(=O)[C@@H](NC(=O)[C@H](CC(C)C)NC(C)=O)[C@@H](C)O)C(=O)N[C@@H](C)C(=O)N[C@@H](Cc2ccc(O)cc2)C(=O)N[C@@H](Cc2c[nH]c3ccccc23)C(=O)N[C@@H](C)C(=O)N[C@@H](CCC(N)=O)C(=O)N[C@@H](CC(C)C)C(=O)N1)C(=O)N[C@@H](C)C(N)=O (single isomer, unassigned) gave Ki of 10 to 100 nM
